What kon was measured for each of the following?
Target: T1, TMEW19 (spTMEFF2(230-320)G3S-H6) (human, UniProt Q9UIK5 230-320)
T1 construct: Residues 230-320 of human TMEFF2 with G3S and 6xHis tag, all in the entry; also called TMEFF2 membrane proximal region; MP
T1 sequence: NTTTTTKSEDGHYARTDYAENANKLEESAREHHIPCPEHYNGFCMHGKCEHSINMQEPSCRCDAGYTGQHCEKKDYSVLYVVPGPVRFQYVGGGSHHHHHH
Assay: ProteOn SPR, mAb captured on anti-human Fc, TMEFF2 as analyte
Report as: number unit

Below, each entry is followed by its recorded kon result.
>>> result("TMEB674 (antibody, human IgG4 S228P, kappa, F234A L235A, V domains shown, IgG4 PAA anti-TMEFF2; also called TMEH410/TMEL126) VH: VQLLESGGGLVQPPGGSLRLSCAASGFTFSSYSMSWVRQAPGKGLEWVSVISGGGSFTSYADSVKGRFTISRDNSNNTLYLQMSSLRAEDTAFYYCARMPLNSPHDCWGQGTLVTVSS VL: AIQMTQSPSSLSASVGDRVTITCRASQGIRNDLGWYQQKPGKAPKLLIYAASSLQSGVPSRFSGSGSGTDFTLTISSLQPEDFATYYCLQDYNYSLTFGGGTKVEIRR")
"837000 M⁻¹ s⁻¹"
>>> result("TMEB570 (antibody, human IgG4 S228P, kappa, F234A L235A, V domains shown, IgG4 PAA anti-TMEFF2; also called TMEH396/TMEL112) VH: QVQLVQSGAEVKKPGSSVKVSCKASGGTFSSYYISWVRQAPGQGLEWMGGIIPISGRANYAQKFQGRVTITADESTSTAYMELSSLRSEDTAVYYCARDGYSSGRSTTYAFDYWGQGTLVTVSS VL: EIVLTQSPGTLSLSPGERATLSCRASQSVSTYYLAWYQQKPGQAPRLLIYGASYRATGIPDRFSGSGSGTDFTLTISRLEPEDFAVYYCQQYGHSPITFGQGTKVEIKR")
"762000 M⁻¹ s⁻¹"
>>> result("TMEB565 (antibody, human IgG4 S228P, kappa, F234A L235A, V domains shown, IgG4 PAA anti-TMEFF2; also called TMEH396/TMEL111) VH: QVQLVQSGAEVKKPGSSVKVSCKASGGTFSSYYISWVRQAPGQGLEWMGGIIPISGRANYAQKFQGRVTITADESTSTAYMELSSLRSEDTAVYYCARDGYSSGRSTTYAFDYWGQGTLVTVSS VL: EIVLTQSPGTLSLSPGERATLSCRASQSVATYYLAWYQQKPGQAPRLLIYGASSRATGIPDRFSGSGSGTDFTLTISRLEPEDFAVYYCQQYGYNPITFGQGTKVEIKR")
"777000 M⁻¹ s⁻¹"

Incoming: // lookup kon for TMEB675 (antibody, human IgG4 S228P, kappa, F234A L235A, V domains shown, IgG4 PAA anti-TMEFF2; also called TMEH411/TMEL127) VH: EVQLLESGGGLVQRGGSLRPSCAASGFTFSSYSMSWVRQAPGKGLEWVSVISGSGGFTDYADSVKGRFTISRDNSKNTLYLHMNSLRAEDTAVYYCARMPLNSPHDYWGQGTLVTVSS VL: AIQMTQSPSSLSASVGDRVTITCRASQGIRNDLGWYQQKPGKAPKLLIYAASSLQSGVPSRFSGSGSGTDFTLTISSLQPEDFATYYCLQDYNYALTFGGGTKVEIKR
Outgoing: 972000 M⁻¹ s⁻¹
